- Test system: c-Src
- experiment.summary: phosphorylation enrichment, bacterial display (enrichment ratio); higher = better substrate or ligand; peptides without Tyr show the background
Label 0.0 if phosphorylation enrichment falls below 0.4; label 1.0 in every other case.

- record.sequence: "MSLRSYGSREG [APC_Y96]"
  category: 1.0
- record.sequence: "DRFDNYIEKVR [DES_Y122_A120D]"
  category: 1.0
- record.sequence: "AALVQYYMEHH [PTPN11_Y80_E76A]"
  category: 1.0
- record.sequence: "ETAENYLGFTA [HSPA9_Y181_H184Y_YF]"
  category: 1.0
- record.sequence: "CKPGFYNLKEK [LAMA1_Y490]"
  category: 0.0
- record.sequence: "TMKSHYMELFD [BBS2_Y644_R643H_YF]"
  category: 1.0
- record.sequence: "RHTRSYDYTEG [FGF7_Y56_M59T]"
  category: 1.0
- record.sequence: "IIGNGYYFHVF [MYBPC3_Y1135_R1138H]"
  category: 0.0
- record.sequence: "MCDSHYLESRS [CLK1_Y56]"
  category: 1.0
- record.sequence: "HTVEDYQAIVD [CCT7_Y263]"
  category: 1.0
- record.sequence: "EFISEHCGEII [EZH2_Y641_Y641H]"
  category: 1.0
- record.sequence: "TLRETYGEMAD [ALB_Y108]"
  category: 1.0
- record.sequence: "LEISPYMLSGR [LRRK2_Y1718]"
  category: 1.0
- record.sequence: "FCRIMYDIFPF [INTS13_Y67_YF]"
  category: 1.0
- record.sequence: "SGSFRYGSSFE [SELE_Y390_C394F]"
  category: 1.0
- record.sequence: "GLAKGYIDPET [CSNK1G2_Y195_E194G]"
  category: 1.0
- record.sequence: "IVWDSYTTNKV [GNB3_Y85]"
  category: 0.0
- record.sequence: "FRPPYYHRNCM [HGD_Y334]"
  category: 1.0
- record.sequence: "IMAYFYMCDRA [CASD1_Y382]"
  category: 1.0
- record.sequence: "EPDSLYGCGGG [ATM_Y2019]"
  category: 1.0
- record.sequence: "DNKALYDICFR [TUBB3_Y208_E205K]"
  category: 1.0
- record.sequence: "PSGPMYRGAVP [ASAH1_Y43_T42M]"
  category: 0.0
- record.sequence: "FGLPRYRWLTH [TSPAN12_Y143_YF]"
  category: 1.0
- record.sequence: "LYEDRYLLGPS [ASS1_Y87_T91P]"
  category: 1.0
- record.sequence: "LNLDTYQKRLR [PLA2G2D_Y126_R121L]"
  category: 1.0
- record.sequence: "LASSEYPVRRR [GALK1_Y236]"
  category: 1.0

###

- tgt: c-Src SH2
- experiment.summary: SH2 binding enrichment of the phosphorylated peptide, bacterial display (enrichment ratio); higher = better substrate or ligand; peptides without Tyr show the background
Consider the reported SH2 binding enrichment of an entry and match it to a band in class 1: < 0.5; class 2: ≥ 0.5 and < 0.7; class 3: ≥ 0.7

- record.sequence: "DEFLEHRRIVG [FAM221A_Y20_Y20H_YF]"
  category: "class 2"
- record.sequence: "SESSYYKSLNL [NGEF_Y289_A286S]"
  category: "class 2"
- record.sequence: "EEKKKYYDTKI [CASP5_Y103]"
  category: "class 1"
- record.sequence: "PSGPMYRGAVP [ASAH1_Y43_T42M]"
  category: "class 1"
- record.sequence: "ALAHKYPGGGG [HBB_Y146_H147P]"
  category: "class 1"
- record.sequence: "FIGCIYLFLTK [GARS1_Y414_R412C_YF]"
  category: "class 3"
- record.sequence: "CDDGKYVYVVT [RPS6KA3_Y488_Y483C]"
  category: "class 1"
- record.sequence: "FGLPRYRWLTH [TSPAN12_Y143_YF]"
  category: "class 2"
- record.sequence: "KNGSNYVVKGN [KIT_Y823_D820G]"
  category: "class 2"
- record.sequence: "KMKGEYYRYLA [YWHAG_Y130_D129E]"
  category: "class 3"
- record.sequence: "EYYENYIEELK [PARP4_Y218_F215Y]"
  category: "class 3"

###

- tgt: FGFR3 (UniProt P22607)
- Sequence (P22607 whole entry, looked up): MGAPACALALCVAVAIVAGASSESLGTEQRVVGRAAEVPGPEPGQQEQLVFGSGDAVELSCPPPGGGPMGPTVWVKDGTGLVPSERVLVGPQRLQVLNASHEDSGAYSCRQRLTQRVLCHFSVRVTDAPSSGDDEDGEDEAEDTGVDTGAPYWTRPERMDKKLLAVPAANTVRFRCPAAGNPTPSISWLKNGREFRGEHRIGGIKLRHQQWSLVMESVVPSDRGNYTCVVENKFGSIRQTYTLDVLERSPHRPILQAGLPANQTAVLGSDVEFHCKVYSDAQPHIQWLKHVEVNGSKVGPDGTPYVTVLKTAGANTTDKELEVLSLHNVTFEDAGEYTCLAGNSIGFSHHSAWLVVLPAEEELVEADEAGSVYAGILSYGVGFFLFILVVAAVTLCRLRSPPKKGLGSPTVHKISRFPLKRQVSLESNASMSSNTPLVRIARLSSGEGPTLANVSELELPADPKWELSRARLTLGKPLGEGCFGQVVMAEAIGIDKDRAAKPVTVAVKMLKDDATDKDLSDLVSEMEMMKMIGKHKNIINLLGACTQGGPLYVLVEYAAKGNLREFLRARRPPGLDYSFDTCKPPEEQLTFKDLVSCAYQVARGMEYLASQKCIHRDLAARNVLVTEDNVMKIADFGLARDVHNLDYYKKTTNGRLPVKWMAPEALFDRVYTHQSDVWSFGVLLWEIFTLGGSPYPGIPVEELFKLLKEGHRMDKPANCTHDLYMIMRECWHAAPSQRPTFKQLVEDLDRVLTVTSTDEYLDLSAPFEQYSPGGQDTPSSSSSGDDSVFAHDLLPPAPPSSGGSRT
- experiment.summary: phosphorylation enrichment, bacterial display (enrichment ratio); higher = better substrate or ligand; peptides without Tyr show the background

- record.sequence: "HFGNNYTDVLQ [MACC1_Y803_R804T_YF]"
  phosphorylation enrichment: 0.733
- record.sequence: "FGVTLYPNSRE [MEP1A_Y472]"
  phosphorylation enrichment: 0.766
- record.sequence: "FRPPYYHRNCM [HGD_Y334]"
  phosphorylation enrichment: 0.504
- record.sequence: "SFNNKYGMVAQ [APOB_Y276_K273N_YF]"
  phosphorylation enrichment: 0.469
- record.sequence: "STGSRYQPLAS [NCAPD2_Y1325]"
  phosphorylation enrichment: 0.494
- record.sequence: "RYVTRSIYNRE [HLA-DQB1_Y62_Y62S]"
  phosphorylation enrichment: 0.327
- record.sequence: "PDGVEYLKNNP [GRIN3A_Y831_D835N]"
  phosphorylation enrichment: 0.769
- record.sequence: "GGFTCYCDGKK [PROS1_Y266_YF]"
  phosphorylation enrichment: 0.865
- record.sequence: "CTTIHYYYMCN [TP53_Y234_N235Y]"
  phosphorylation enrichment: 2.11
- record.sequence: "LVPAWYIGFLC [KCNQ2_Y237_T234P]"
  phosphorylation enrichment: 0.812
- record.sequence: "LIEQAYDNLHE [PRPF8_Y871_P874L]"
  phosphorylation enrichment: 1.05
- record.sequence: "LEAVSYSSRYA [RNLS_Y190]"
  phosphorylation enrichment: 0.462
- record.sequence: "PINEPYGDDMD [JUP_Y693]"
  phosphorylation enrichment: 1.34
- record.sequence: "EFENSCIFDIN [GAB1_Y83_Y83C]"
  phosphorylation enrichment: 0.632

###

Measured phosphorylation enrichment, listed per entry for reference.
- tgt: FGFR1 (UniProt P11362)
- Sequence (P11362 whole entry, looked up): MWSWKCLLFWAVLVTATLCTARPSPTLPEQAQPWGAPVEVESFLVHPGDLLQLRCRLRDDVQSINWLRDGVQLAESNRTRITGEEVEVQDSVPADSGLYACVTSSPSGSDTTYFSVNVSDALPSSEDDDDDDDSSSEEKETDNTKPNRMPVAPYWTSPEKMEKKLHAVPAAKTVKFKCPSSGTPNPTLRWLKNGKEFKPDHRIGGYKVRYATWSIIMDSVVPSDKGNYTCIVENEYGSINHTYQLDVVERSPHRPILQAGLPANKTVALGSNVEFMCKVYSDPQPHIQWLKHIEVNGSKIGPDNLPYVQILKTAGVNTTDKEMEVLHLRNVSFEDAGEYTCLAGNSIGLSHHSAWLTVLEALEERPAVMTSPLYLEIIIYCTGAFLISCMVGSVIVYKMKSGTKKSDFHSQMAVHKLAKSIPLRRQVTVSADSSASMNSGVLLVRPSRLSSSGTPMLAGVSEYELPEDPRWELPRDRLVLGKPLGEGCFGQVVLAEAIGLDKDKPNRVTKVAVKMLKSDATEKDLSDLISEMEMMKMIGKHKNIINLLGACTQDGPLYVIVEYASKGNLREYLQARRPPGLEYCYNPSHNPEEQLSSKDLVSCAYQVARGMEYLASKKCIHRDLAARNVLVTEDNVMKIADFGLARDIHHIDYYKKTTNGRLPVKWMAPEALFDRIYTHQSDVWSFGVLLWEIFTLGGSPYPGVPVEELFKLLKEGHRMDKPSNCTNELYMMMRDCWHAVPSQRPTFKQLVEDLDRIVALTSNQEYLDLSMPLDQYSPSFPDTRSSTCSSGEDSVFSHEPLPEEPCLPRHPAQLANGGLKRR
- experiment.summary: phosphorylation enrichment, bacterial display (enrichment ratio); higher = better substrate or ligand; peptides without Tyr show the background
experimental.endpoint: phosphorylation enrichment

- record.sequence: "GKTQQYECKWY [BCR_Y751_D752E]"
  tgt: "FGFR1 (UniProt P11362)"
  experimental.endpoint: "phosphorylation enrichment"
  result: 0.499
- record.sequence: "FADIAYNFHHG [PAH_Y166_R169H_YF]"
  tgt: "FGFR1 (UniProt P11362)"
  experimental.endpoint: "phosphorylation enrichment"
  result: 0.515
- record.sequence: "IVWDSYTTNKV [GNB3_Y85]"
  tgt: "FGFR1 (UniProt P11362)"
  experimental.endpoint: "phosphorylation enrichment"
  result: 0.501
- record.sequence: "EPDSLYGCGGG [ATM_Y2019]"
  tgt: "FGFR1 (UniProt P11362)"
  experimental.endpoint: "phosphorylation enrichment"
  result: 0.619
- record.sequence: "PFRKLYESVKK [MKI67_Y241_W238R]"
  tgt: "FGFR1 (UniProt P11362)"
  experimental.endpoint: "phosphorylation enrichment"
  result: 2.28
- record.sequence: "VTDGKYAFKPK [GTF2E2_Y137_I133T]"
  tgt: "FGFR1 (UniProt P11362)"
  experimental.endpoint: "phosphorylation enrichment"
  result: 0.411
- record.sequence: "WRPFGYPCRRR [BCS1L_Y181_R183C]"
  tgt: "FGFR1 (UniProt P11362)"
  experimental.endpoint: "phosphorylation enrichment"
  result: 0.496

###

- tgt: Jak2 (UniProt O60674)
- Sequence (O60674 whole entry, looked up): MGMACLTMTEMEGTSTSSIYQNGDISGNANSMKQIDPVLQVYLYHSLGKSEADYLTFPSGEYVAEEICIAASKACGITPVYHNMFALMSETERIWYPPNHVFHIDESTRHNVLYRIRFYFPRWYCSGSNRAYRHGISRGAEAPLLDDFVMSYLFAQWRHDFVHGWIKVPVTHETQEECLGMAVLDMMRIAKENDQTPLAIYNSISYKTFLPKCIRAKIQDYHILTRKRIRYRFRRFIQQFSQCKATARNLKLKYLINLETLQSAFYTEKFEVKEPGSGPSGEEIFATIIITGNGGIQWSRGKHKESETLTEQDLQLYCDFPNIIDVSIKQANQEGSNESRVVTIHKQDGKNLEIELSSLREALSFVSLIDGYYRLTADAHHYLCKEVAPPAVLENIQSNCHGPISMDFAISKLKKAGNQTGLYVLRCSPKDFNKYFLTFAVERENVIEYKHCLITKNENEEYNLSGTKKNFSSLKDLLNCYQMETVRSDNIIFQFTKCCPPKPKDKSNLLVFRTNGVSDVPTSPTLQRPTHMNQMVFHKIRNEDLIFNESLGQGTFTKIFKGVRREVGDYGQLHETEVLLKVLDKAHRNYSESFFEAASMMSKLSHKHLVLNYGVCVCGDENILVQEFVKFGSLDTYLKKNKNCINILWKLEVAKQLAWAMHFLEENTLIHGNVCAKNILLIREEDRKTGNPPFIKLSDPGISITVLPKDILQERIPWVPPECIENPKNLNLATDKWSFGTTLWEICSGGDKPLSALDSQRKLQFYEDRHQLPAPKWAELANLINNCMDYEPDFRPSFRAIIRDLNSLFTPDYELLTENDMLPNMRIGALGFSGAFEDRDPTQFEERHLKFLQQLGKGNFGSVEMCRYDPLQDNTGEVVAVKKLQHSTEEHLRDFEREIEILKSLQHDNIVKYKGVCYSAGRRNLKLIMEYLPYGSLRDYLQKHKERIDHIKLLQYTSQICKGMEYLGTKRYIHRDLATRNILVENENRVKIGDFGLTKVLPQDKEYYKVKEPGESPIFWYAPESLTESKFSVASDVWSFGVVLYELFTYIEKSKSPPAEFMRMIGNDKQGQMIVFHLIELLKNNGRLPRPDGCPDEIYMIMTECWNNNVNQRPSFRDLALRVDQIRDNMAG
- experiment.summary: phosphorylation enrichment, bacterial display (enrichment ratio); higher = better substrate or ligand; peptides without Tyr show the background
experimental.endpoint: phosphorylation enrichment

- record.sequence: "YENGEYIIRQG [PRKG1_Y247]"
  number: 0.913
- record.sequence: "IVEYAYNDKAI [PUM3_Y259]"
  number: 1.15
- record.sequence: "FFRDGCMPRQF [GSS_Y270_Y270C_YF]"
  number: 0.949
- record.sequence: "VFLGAYDCFLP [SLC22A5_Y486_R488C_YF]"
  number: 1.17
- record.sequence: "WHHIFYNELRV [ACTG1_Y91_T89I]"
  number: 1.13
- record.sequence: "PFFASYPPSPD [GDAP2_Y491_T489A_YF]"
  number: 1.02
- record.sequence: "MTFVFYRENLR [NLRP14_Y443_YF]"
  number: 1.13
- record.sequence: "RRIHNYRGHLW [VHL_Y112_S111N]"
  number: 0.501
- record.sequence: "KVPRHYDDPGK [FOXG1_Y246]"
  number: 1.25
- record.sequence: "PRSRSYSSTSI [REPS2_Y462]"
  number: 1.2
- record.sequence: "ECKASCPGKIT [PRSS3_Y232_Y232C]"
  number: 0.402
- record.sequence: "EYYENYIEELK [PARP4_Y218_F215Y]"
  number: 1.11
- record.sequence: "NFDRIYIYHLR [MYOF_Y1137_V1136I]"
  number: 1.1
- record.sequence: "ALAAPYVLYPG [CEFIP_Y1332]"
  number: 0.845
